measurementProtocol: thermodynamic and kinetic water solubility
Assay type: physicochemical
conditionLabel: kinetic from dmso stock
measure: solubility kinetic at 48 h (µM)
Give a bare numeral; the unit µM is implied.

Kindly note the recorded solubility kinetic at 48 h for CN1c2c(C(=O)Nc3ccc(NS(C)(=O)=O)cc3)nn(-c3cccc(Cl)c3)c2-c2ccccc2S1(=O)=O [2a] , which is 0.275

====

assaySystem: recombinant NS5BCΔ21 1b (Hepatitis C virus genotype 1b, UniProt O92972)
measurementProtocol: NS5B primer dependent elongation
Format: biochemical
conditionLabel: read-out: inhibition of NS5B RdRp activity, screen at 50 μM
This section presents compounds with their documented inhibition at 50 µM values.

[[record]]
compound = "Cc1ccc(-n2nc(C(=O)Nc3ccc(NS(C)(=O)=O)cc3)c3c2-c2ccccc2S(=O)(=O)N3C)cc1Cl [2r]"
assaysystem = "recombinant NS5BCΔ21 1b (Hepatitis C virus genotype 1b, UniProt O92972)"
measure = "inhibition at 50 µM"
result = "≥ 50%"

[[record]]
compound = "Cc1ccc(-n2nc(C(=O)Nc3ccc(NS(C)(=O)=O)cc3)c3c2-c2ccccc2S(=O)(=O)N3C)cc1C [2q]"
assaysystem = "recombinant NS5BCΔ21 1b (Hepatitis C virus genotype 1b, UniProt O92972)"
measure = "inhibition at 50 µM"
result = "< 50%"


Continue with the next compound.
Kindly note the recorded inhibition at 50 µM for CN1c2c(C(=O)Nc3ccc(NS(C)(=O)=O)cc3)nn(-c3ccccc3C(F)(F)F)c2-c2ccccc2S1(=O)=O [2n] , which is < 50%

Source listed as paper PMC4203399.
